# target-entity: Nuclear receptor ROR-gamma (Mus musculus) (UniProt P51450)
# Sequence (P51450 whole entry, looked up): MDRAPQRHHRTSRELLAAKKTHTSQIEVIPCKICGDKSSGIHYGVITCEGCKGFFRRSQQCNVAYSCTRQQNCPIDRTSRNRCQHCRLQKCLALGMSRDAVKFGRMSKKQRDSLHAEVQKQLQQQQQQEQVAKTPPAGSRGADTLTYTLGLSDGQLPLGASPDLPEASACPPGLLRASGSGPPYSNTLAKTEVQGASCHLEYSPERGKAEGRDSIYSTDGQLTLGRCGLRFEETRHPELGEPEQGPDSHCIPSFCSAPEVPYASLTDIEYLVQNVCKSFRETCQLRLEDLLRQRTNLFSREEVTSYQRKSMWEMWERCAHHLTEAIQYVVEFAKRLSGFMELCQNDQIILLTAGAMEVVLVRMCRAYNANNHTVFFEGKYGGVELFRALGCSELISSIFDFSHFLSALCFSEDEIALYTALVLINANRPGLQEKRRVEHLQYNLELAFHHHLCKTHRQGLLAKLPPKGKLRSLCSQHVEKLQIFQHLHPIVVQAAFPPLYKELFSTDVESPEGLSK
# assay-procedure: qHTS for inhibitors of ROR gamma transcriptional activity; also: nearly all actives have a fitted effect of over 60% in size
# particulars: Drosophila S2 Gal4-RORgamma UAS-luciferase reporter, 20 h; series mostly up to 53.6 µM
In all, about 310,000 compounds went through this assay and about 17,000 (5.5%) were called active. Not shown: some 11% with an inconclusive outcome. Calls follow the shape of the dose curve; as a rule, active = well fitted inhibition curve with a large enough effect; inconclusive = small, poorly fitted or top-dose-only effect, or effect the other way; inactive = no such curve, though single readings can be large or run the other way. Shown is part of a subset that was picked to be rich in actives.
The categories you may choose from are active, inactive

What classification did Cc1c(C)c2c(OCC(=O)NCCCO)cc3c(c2oc1=O)CCC(C)(C)O3 end up with in this test?
inactive

What classification did Cc1c(CN2CC[C@@H](N3CCN(c4ccccn4)CC3)[C@H](O)C2)[nH]c2ccc(F)cc12 end up with in this test?
inactive

What classification did Cc1csc(-c2coc3cc(O[C@@H]4O[C@H](CO)[C@@H](O)[C@@H](O)[C@H]4O)ccc3c2=O)n1 end up with in this test?
active

What classification did COc1ccc(OC)c(CNC(=O)Cn2nc(C)c3c(C)n(-c4ccc(C)cc4)nc3c2=O)c1 end up with in this test?
inactive

What classification did COc1cccc(CNC(=O)CCN2C(=S)NC(C)(C)CC2C)c1 (stereo not drawn) end up with in this test?
inactive

What classification did Cc1ccc(-c2ccc(=O)n(Cc3ccc(F)cc3Cl)n2)cc1 end up with in this test?
inactive

What classification did Cc1ccc(NC(=S)N(CCCN2CCC(C)CC2)Cc2ccco2)cc1 end up with in this test?
inactive

What classification did COc1ccc(N(CC(=O)Nc2ccc(F)c(F)c2)S(=O)(=O)c2c(C)[nH]c(=O)[nH]c2=O)cc1 end up with in this test?
inactive

----------
# target-entity: Nuclear receptor ROR-gamma (Mus musculus) (UniProt P51450)
# assay-procedure: qHTS for inhibitors of ROR gamma transcriptional activity; also: nearly all actives have a fitted effect of over 60% in size
# particulars: Drosophila S2 Gal4-RORgamma UAS-luciferase reporter, 20 h; series mostly up to 53.6 µM
Out of some 310,000 compounds screened, about 17,000 (5.5%) were called active. Not shown: some 11% with an inconclusive outcome. The call rests on the fitted dose curve; in most records, active means well fitted inhibition curve with a large enough effect; inconclusive means small, poorly fitted or top-dose-only effect, or effect the other way; inactive means no such curve, though single readings can be large or run the other way. This excerpt belongs to a sample that is enriched for actives.
The categories you may choose from are Yes (active), No (inactive)

What classification did COC(=O)c1ccc(CSc2ccccc2C)o1 end up with in this test?
No

What classification did COc1ccc(N2CCN(C(=O)Cn3cnc4sc(C)c(S(=O)(=O)N5CCOCC5)c4c3=O)CC2)cc1 end up with in this test?
No

What classification did O=C(CN1CCCCCC1)Nc1ccc(S(=O)(=O)N2CCCCC2)cc1 end up with in this test?
No

What classification did Cc1nnnn1/C(=C\c1ccccc1)C(=O)OCC(=O)N1CC2(C)CC1CC(C)(C)C2 (centres undefined) end up with in this test?
Yes

----------
# target-entity: Nuclear receptor ROR-gamma (Mus musculus) (UniProt P51450)
# assay-procedure: qHTS for inhibitors of ROR gamma transcriptional activity; also: nearly all actives have a fitted effect of over 60% in size
# particulars: Drosophila S2 Gal4-RORgamma UAS-luciferase reporter, 20 h; series mostly up to 53.6 µM
The whole screen tested about 310,000 compounds, of which about 17,000 (5.5%) were called active. Roughly 11% stayed inconclusive and do not appear here. Calls follow the shape of the dose curve; as a rule, active = well fitted inhibition curve with a large enough effect; inconclusive = small, poorly fitted or top-dose-only effect, or effect the other way; inactive = no such curve, though single readings can be large or run the other way. The full list was thinned out, with actives kept by preference.
The categories you may choose from are active, inactive

What classification did COc1ccccc1CNC(=O)C1CCN(S(=O)(=O)c2ccc3c(c2)CC(C)N3C(=O)C2CC2)CC1 (stereo unspecified) end up with in this test?
inactive

What classification did COCCN(C(=S)Nc1ccccc1OC)C1CCN(C(C)C)CC1 end up with in this test?
inactive

What classification did COc1cc(C(=S)NCc2ccccc2)cc(Br)c1O end up with in this test?
inactive

What classification did O=C(/C=C/c1ccc2c(c1)OCO2)NCc1cn2cc(Cl)ccc2n1 end up with in this test?
inactive

What classification did CC(C(=O)N1CCN(c2ccccc2F)CC1)c1ccc([N+](=O)[O-])cc1 (stereo unspecified) end up with in this test?
inactive

What classification did CC(=O)c1ccc(N2CCN(C(=O)CCNC(=O)Cn3ccc4ccccc4c3=O)CC2)cc1 end up with in this test?
inactive

What classification did COc1ccc(NC(=O)CS(=O)(=O)c2ccccc2)cc1 end up with in this test?
inactive

What classification did CC(=O)Nc1cccc(Nc2nc(-c3cccs3)nc3ccccc23)c1 end up with in this test?
inactive

What classification did CC(OC(=O)c1ccc2noc(-c3ccccc3)c2c1)C(N)=O (stereo unspecified) end up with in this test?
inactive

What classification did Cc1ccc(/C=C2/SC(=S)N(CCC(=O)NCCCN3CCOCC3)C2=O)cc1 end up with in this test?
inactive

What classification did CCN(CC(=O)N1CCCC1)S(=O)(=O)c1ccc(F)cc1 end up with in this test?
inactive

What classification did Cc1c(CN2CCC(CO)(CCOc3ccccc3)CC2)[nH]c2ccc(Cl)cc12 end up with in this test?
active

What classification did Cc1nn2c3ccccc3nc2n(C)c1=O end up with in this test?
inactive

What classification did CCN1C(=S)N[C@@H](c2cccc(C(F)(F)F)c2)C(C(=O)OC)=C1C end up with in this test?
inactive

What classification did O=C(c1noc2c1CCCC2)N1CCc2ccccc2C1 end up with in this test?
inactive

What classification did CCNC(=S)Nc1ccc(OC(F)(F)F)cc1 end up with in this test?
active

What classification did C=CCC1=C/C(=C\c2c(N)n3nc(CC(=O)N4CCOCC4)sc3nc2=O)C=C(OC)C1=O end up with in this test?
inactive

What classification did CN(C)CCN(Cc1ccccc1)S(=O)(=O)c1csc(C(N)=O)c1 end up with in this test?
inactive

What classification did O=C(CN(C(=O)c1nsc(Cl)c1Cl)c1cccc(F)c1)NC1CCCC1 end up with in this test?
inactive

What classification did CCn1c(SCC(=O)Nc2ccc(Br)cc2)nc2sc3c(c2c1=O)CCN(C)C3 end up with in this test?
inactive

What classification did CC1(C)Oc2ccc3ccc(=O)oc3c2/C(=N/O)C1=O end up with in this test?
inactive
